Molecular target: recombinant human-Dectin-1 mouse Fc fusion (human) (UniProt Q9BXN2)
Assay: Octet BLI, delta between the two X values
Parameter measured: delta (%)
Kindly answer with a numeric value in %, unit omitted.

{"Binder": "2M24A.1.7 hFab (Fab, V domains shown) VH: QVQLVQSGAEVKKPGASVKVSCKSSGYTFTDYYIHWVRQAPGQGLEWMGWINPNSGATNYAQKFQGRITMTRDTSISTAYLELSRLRSDDTAVFYCARNSGSYSFGYWGQGTLVTVSS VL: DIQMTQSPSSVSASVGDRVTITCRASQGISSWLAWYQQKPGKAPKLLIFGASSLQSGVPSRFSGSGSGTDFTLTVSSLQPEDFATYYCQQAFSFPFTFGPGTKVDIE", "Units of measure": "%", "delta": 22}

Item 2M24A.1.16 (Fab, V domains shown) VH: QVQLVQSGAEVKKPGASVKVSCKSSGYTFTDYYIHWVRQAPGQGLEWMGWINPNSGDTNYAQKFQGRITMTRDTSISTAYLELSRLRSDDTAVFYCARNAGSYSFGYWGQGTLVTVSS VL: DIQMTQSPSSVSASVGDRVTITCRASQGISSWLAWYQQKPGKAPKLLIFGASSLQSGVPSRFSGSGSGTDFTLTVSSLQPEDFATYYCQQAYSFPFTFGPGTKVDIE : provide delta
5

Name the recorded delta of the item 2M24A.1.2 hFab (Fab, V domains shown) VH: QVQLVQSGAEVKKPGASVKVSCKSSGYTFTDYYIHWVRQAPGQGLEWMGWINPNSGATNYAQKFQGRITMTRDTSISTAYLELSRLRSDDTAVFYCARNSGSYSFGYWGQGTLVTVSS VL: DIQMTQSPSSVSASVGDRVTITCRASQGISSWLAWYQQKPGKAPKLLIFGASSLQSGVPSRFSGSGSGTDFTLTVSSLQPEDFATYYCQQAASFPFTFGPGTKVDIE in your answer.
98

Please indicate delta recorded for 2M24A.1.8 hFab (Fab, V domains shown) VH: QVQLVQSGAEVKKPGASVKVSCKSSGYTFTDYYIHWVRQAPGQGLEWMGWINPNSGDTNYAQKFQGRITMTRDTSISTAYLELSRLRSDDTAVFYCARASGSYSFGYWGQGTLVTVSS VL: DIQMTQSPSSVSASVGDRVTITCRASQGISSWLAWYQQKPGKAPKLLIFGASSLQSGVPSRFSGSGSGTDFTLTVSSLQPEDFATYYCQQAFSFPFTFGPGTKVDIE
100

Quick one: give measured delta for 2M24A.1.21 (Fab, V domains shown) VH: QVQLVQSGAEVKKPGASVKVSCKSSGYTFTDYYIHWVRQAPGQGLEWMGWINPNSGDTNYAQKFQGRITMTRDTSISTAYLELSRLRSDDTAVFYCARNSGSYSFAYWGQGTLVTVSS VL: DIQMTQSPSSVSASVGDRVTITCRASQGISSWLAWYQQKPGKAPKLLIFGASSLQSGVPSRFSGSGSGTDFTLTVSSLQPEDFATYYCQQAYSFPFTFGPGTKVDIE
8

Please list delta recorded for the binder 2M24A.1.1 hFab (Fab, V domains shown) VH: QVQLVQSGAEVKKPGASVKVSCKSSGYTFTAYYIHWVRQAPGQGLEWMGWINPNSGDTNYAQKFQGRITMTRDTSISTAYLELSRLRSDDTAVFYCARNSGSYSFGYWGQGTLVTVSS VL: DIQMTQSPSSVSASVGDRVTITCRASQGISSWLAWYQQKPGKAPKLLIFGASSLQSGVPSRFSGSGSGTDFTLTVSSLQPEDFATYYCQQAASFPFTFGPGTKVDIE
98

Give a short answer stating reported delta for 2M24A.1.19 (Fab, V domains shown) VH: QVQLVQSGAEVKKPGASVKVSCKSSGYTFTDYYIHWVRQAPGQGLEWMGWINPNSGDTNYAQKFQGRITMTRDTSISTAYLELSRLRSDDTAVFYCARNSGSYAFGYWGQGTLVTVSS VL: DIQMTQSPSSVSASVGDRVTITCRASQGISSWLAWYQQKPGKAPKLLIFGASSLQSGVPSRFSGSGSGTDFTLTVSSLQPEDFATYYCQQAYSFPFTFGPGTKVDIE .
22

Given the binder 2M24A.1.6 hFab (Fab, V domains shown) VH: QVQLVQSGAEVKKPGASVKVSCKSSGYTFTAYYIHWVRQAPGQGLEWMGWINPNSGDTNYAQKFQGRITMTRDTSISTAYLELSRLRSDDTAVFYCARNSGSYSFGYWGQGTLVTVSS VL: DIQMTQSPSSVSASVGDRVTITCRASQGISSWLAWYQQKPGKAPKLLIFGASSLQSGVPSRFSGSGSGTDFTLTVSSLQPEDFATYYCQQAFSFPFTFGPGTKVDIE , write its reported delta.
21

State its delta for this binder: 2M24A.1.12 hFab (Fab, V domains shown) VH: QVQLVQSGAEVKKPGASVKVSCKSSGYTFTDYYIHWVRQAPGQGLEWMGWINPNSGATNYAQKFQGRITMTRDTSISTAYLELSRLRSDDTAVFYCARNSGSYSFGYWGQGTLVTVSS VL: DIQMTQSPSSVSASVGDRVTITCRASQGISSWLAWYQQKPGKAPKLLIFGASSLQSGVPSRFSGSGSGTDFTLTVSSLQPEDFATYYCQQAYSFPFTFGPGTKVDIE
19

Give the reported delta for this binder. 2M24A.1.17 (Fab, V domains shown) VH: QVQLVQSGAEVKKPGASVKVSCKSSGYTFTDYYIHWVRQAPGQGLEWMGWINPNSGDTNYAQKFQGRITMTRDTSISTAYLELSRLRSDDTAVFYCARNSASYSFGYWGQGTLVTVSS VL: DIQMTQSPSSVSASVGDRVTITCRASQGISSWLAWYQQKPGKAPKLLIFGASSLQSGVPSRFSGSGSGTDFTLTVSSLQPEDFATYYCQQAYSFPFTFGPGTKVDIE
1
